Please go through the items and note down their enrichment ratio.
B1: PhoQ; a variant is named by its letters at X, in order, P23837 (parent)
chain: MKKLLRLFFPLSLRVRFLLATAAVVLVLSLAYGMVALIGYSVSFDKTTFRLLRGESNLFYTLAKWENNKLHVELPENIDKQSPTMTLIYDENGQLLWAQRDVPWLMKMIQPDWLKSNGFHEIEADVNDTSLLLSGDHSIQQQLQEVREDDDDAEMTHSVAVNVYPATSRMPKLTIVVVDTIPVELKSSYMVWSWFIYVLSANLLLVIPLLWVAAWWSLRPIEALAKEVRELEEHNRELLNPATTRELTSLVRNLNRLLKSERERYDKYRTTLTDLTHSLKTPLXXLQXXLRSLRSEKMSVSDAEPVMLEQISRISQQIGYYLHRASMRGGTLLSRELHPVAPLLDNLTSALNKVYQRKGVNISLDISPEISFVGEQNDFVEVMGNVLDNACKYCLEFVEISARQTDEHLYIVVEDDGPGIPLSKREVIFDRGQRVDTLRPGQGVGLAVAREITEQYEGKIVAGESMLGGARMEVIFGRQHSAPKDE

Variants of: B1
Assay: enrichment ratio after two sorts for PhoP signalling (ratio (wild type AVST 3.29)); higher = more functional
Settings: with PhoP (E. coli)
Over roughly 140,000 sequences, “enrichment ratio after two sorts for PhoP signalling” has its median near 0; the highest 2% begin near 11. For the sample, the highest values were picked, then their nearest neighbours and some sequences at random.
// no unit string in output, number only

Reported enrichment ratio ( SCYS ) = 0.535

Lab note: SHQM gave enrichment ratio of 0.951

# enrichment ratio (variant: SKCL ) is 11.8

// enrichment ratio lookup, variant = SKTS , result: 3.33

get_value(item= SKCI , readout=enrichment ratio) returns 16.6

Noted for SKTA : its enrichment ratio reads 0.276

Item: SKMI | enrichment ratio: 4.44

Record summary for SKTI : reported enrichment ratio = 14.2
